These entries and their values trace back to PubChem BioAssay (NCATS).

- assay.protocol: qHTS assay for cell viability of HEK293 cells (AID 743288); also: % is scaled to controls: 0 for no effect and ±100 for the full control effect
- test.conditions: ATP luminescence (CellTiter-Glo), 18 h; stronger effect = lower value
Records with an inconclusive call do not appear.
Consider the following compounds and their measured max response readings.

compound	max response [%]
CC(C)C1(C)N=C(c2ncccc2C(=O)O)NC1=O (stereo not drawn)	8
CCCCCCCCCCCCCCC(Br)C(=O)O (stereo not drawn)	3.54
NS(=O)(=O)C(F)(F)C(F)(F)C(F)(F)C(F)(F)C(F)(F)C(F)(F)C(F)(F)C(F)(F)F	-13.7
Cc1nn(-c2cc(NS(C)(=O)=O)c(Cl)cc2Cl)c(=O)n1C(F)F	-6.27
CC(C)N(C(=O)SCC(Cl)=C(Cl)Cl)C(C)C	2.96
O=P(Oc1ccccc1)(Oc1ccccc1)Oc1ccccc1	-15.7
COP(=S)(OC)Oc1ccc([N+](=O)[O-])c(C)c1	-7.08
C#CCN1C(=O)COc2cc(F)c(N3C(=O)C4=C(CCCC4)C3=O)cc21	-11.7
Clc1ccc(C(Cl)(Cl)Cl)cc1	-0.236
CC(=NC#N)N(C)Cc1ccc(Cl)nc1	-11.8
CCCCN(CC)C(=O)SCCC	-1.81
CCOP(=O)(NC(C)C)Oc1ccc(S(C)(=O)=O)c(C)c1 (stereo not drawn)	-9.88
COP(=S)(OC)Oc1nc(Cl)c(Cl)cc1Cl	-14.5
CN/C(=N/[N+](=O)[O-])NCC1CCOC1 (stereo not drawn)	-6.54
COc1cc(OC)nc(Sc2cccc(Cl)c2C(=O)O)n1	-8.52
[CH3][Sn]([CH3])([Cl])[Cl]	-9.37
COP(=O)(NC(C)=O)SC (stereo not drawn)	-8.22
Cc1ccc2ccccc2c1C	5.03
Nc1cccc(Cl)c1Cl	-1.9
CCC(C)Nc1c([N+](=O)[O-])cc(C(C)(C)C)cc1[N+](=O)[O-] (stereo not drawn)	-2.45
CCCCOC(=O)c1ccccc1C(=O)O	6.89
O=C=Nc1ccc(Cl)cc1	-9.38
CC(c1ccc(O)cc1)(c1ccc(O)cc1)c1ccc(O)cc1	-0.68
